A collection of compounds and their measured TGI
test system: SNB-75 CNS; assay: NCI tumour cell line growth inhibition, 48 h

Solved entries (count: 5):
1) COc1cc(/C=C2/C(=O)N=C(NC(C)=O)N2C)ccc1OC(C)=O = > 100 µM
2) COc1cc2c(cc1O)-c1c(OC)c(O)cc3c1C(C2)N(C)CC3 (stereo not given) = > 100 µM
3) CCN(CC)CCOCC1CCCN2CCCCC12 (stereo not given) = > 100 µM
4) CN(C)C(=O)C(F)(F)C(c1ccc(C(F)(F)F)cc1)C1C(=O)N(C)C(=O)N(C)C1=O (stereo not given) = > 100 µM
5) O=[N+]([O-])c1cc(C(F)(F)F)ccc1S(=O)(=O)N[C@@H]1CCCC[C@H]1NS(=O)(=O)c1ccc(C(F)(F)F)cc1[N+](=O)[O-] = 7.46 µM

Reported TGI of NC(=O)OCC(COc1ccc(Cl)cc1)OC(=O)c1cc([N+](=O)[O-])cc([N+](=O)[O-])c1 (stereo not given) : > 100 µM

Recorded TGI (compound Cc1nn(-c2ccccc2)c(C)c1/C=N/N1CCN(Cc2ccccc2)CC1 ): > 100 µM

Reported TGI for CCCC(=O)[O-].CCCC(=O)[O-].N.N.N.N.[Co+3].[O-][Cl+3]([O-])([O-])[O-] was > 100 µM

compound CCN(CC)C(=O)N[C@@H](Cc1ccccc1)C(=O)NC , TGI observed: > 100 µM

Documented TGI of O=C(Nc1ccc(Cl)cc1F)c1cc(Cl)ccc1O : 3.77 µM

Lookup result for O=C1C(Cl)=C(Nc2ccccn2)C(=O)c2ccccc21 ; measured TGI: 4.49 µM

Lab book: TGI of COc1ccc(NC(=O)CC(=O)n2nc(-c3ccccc3)c(N=Nc3ccccc3C)c2-c2ccccc2)cc1 noted as 36.6 µM

What the record says about CC(=O)O[C@]12CCCCC1C1(O)C(O)CCCC[C@H]12 (stereo not given in full) : TGI is > 100 µM

The compound CCOC(=O)/C(=C/c1ccc(Cl)cc1)N(CC)CC showed TGI equal to > 100 µM

The measured TGI associated with C/C=C(\C)C(=O)OC1C2C(C)C(=O)OC2C(O)C(C)C2C=CC(=O)C21C (stereo not given) reads 43.3 µM

====

tested on: DMS 114 small cell lung; assay: NCI tumour cell line growth inhibition, 48 h
measurement.name: TGI (µM)
The reply should contain only the number, in µM.

Recorded results for 2 molecules are shown here.
1. CCOC1=C2C(C)(CCC3[C@@]4(C)C=CC(=O)C(C)(C)C4CC(O)[C@@]23C)C(c2ccoc2)C1=O (stereo partly drawn) = 36.8
2. CC1OC(n2cc(I)c(=O)[nH]c2=O)C=CC1=O (stereo not drawn) = 31

// switching to the query molecule
Observed TGI, DMS 114 small cell lung, C=C(CN(C)C)C(=O)c1ccc(OC)cc1 : 8.38

====

test system: HS 578T breast; test: NCI tumour cell line growth inhibition, 48 h
Where a SMILES comes first, the peptide text is derived from it. [ ]: non-standard residue; d: D form. The star is where a group is joined. ξ: configuration not given here. ξW = NC(Cc1c[nH]c2ccccc12)C(=O)O; X30 = O=C(O)[C@H]1CCC[C@H]1N*; ξF = NC(Cc1ccccc1)C(=O)O; Boc = CC(C)(C)OC(=O)*; ξK = NCCCCC(N)C(=O)O; ξT = CC(O)C(N)C(=O)O; tBu = CC(C)(C)*
measurement.name: TGI (µM)
The reply should be a number in µM, with the unit left off.

1) CC(OC(C)(C)C)C(NC(=O)C(CCCCNC(=O)OC(C)(C)C)NC(=O)C(Cc1c[nH]c2ccccc12)NC(=O)C(N)Cc1ccccc1)C(=O)NC(Cc1ccccc1)C(=O)N[C@@H]1CCC[C@@H]1C(=O)O (stereo partly drawn) (H-[ξF][ξW][ξK](Boc)[ξT](tBu)[ξF]-X30) = 50.6

Could you now consider this next compound?
# compound CCNC(=O)c1ccc2c(c1)nc(-c1ccc(Cl)cc1)n2-c1cc(C(C)(C)C)[nH]n1 ; its TGI = 7.6

====

tested on: MDA-MB-435
In this section we review reported GI50 values for a set of compounds.

1. Cc1ccc(C(CC(=O)c2ccccc2)C(C(=O)c2ccccc2)C(c2ccc(C)cc2)C2C(=O)NC(=S)NC2=O)cc1 (centres undefined) = 14.6 µM

Memo: CCNC(=O)c1ccc2c(c1)nc(-c1ccc(Cl)cc1)n2-c1cc(C(C)(C)C)[nH]n1 , reported GI50: 1.09 µM

Looking up O=C(Nc1ccc(O)c(NS(=O)(=O)c2ccc(F)cc2)c1)c1ccc(-c2ccccc2)cc1 , I found its GI50 recorded as 8.12 µM

Briefly, GI50 measured for CCc1cccc(CC)c1NC(=O)c1ccn2c1CCc1cnc(Nc3ccc(N4CCN(C)CC4)cc3OC)nc1-2 : 2.51 µM

====

test system: NCI-H460 lung; experiment: NCI tumour cell line growth inhibition, 48 h
This listing pairs compounds with measured TGI.
Response body: numeric value in µM, unit text excluded.

1. Cc1n(CC(C)C)c2c([n+]1CC(=O)c1ccc([N+](=O)[O-])cc1)C(=O)c1ccccc1C2=O = 1.38

Short answer on NCI-H460 lung for O=c1cc(-c2ccccc2)nc2cc(-c3ccco3)[nH]n12 , TGI: 20.6

====

tested on: OVCAR-8 ovarian; assay: NCI tumour cell line growth inhibition, 48 h; in the data active means GI50 below about 0.43 µM; inactive means the rest
Would you mind answering with one of these outcomes? active, inactive

# example entries with known answers
1) C(=C\c1nc2ccccc2s1)/c1ccc(N2CCOCC2)s1 = inactive
2) C[CH2][Sn]([Cl])([CH2]C)[CH2]C = inactive

(Q) Field: outcome | Entry: Cc1cccc2c1NC(=O)C2(c1ccc(O)cc1)c1ccc(O)cc1
(A) active

====

tested on: OVCAR-5 ovarian; experiment: NCI tumour cell line growth inhibition, 48 h; in the data active means GI50 below about 0.43 µM; inactive means the rest
Entry note: the call must match one of active, inactive

Observe how each entry below is paired with its result.
1. CC(=O)Nc1ccc(S(=O)(=O)c2ccc(NC(C)=O)cc2)cc1 = inactive
2. [O]=[W](=[O])([OH])[OH] = inactive
3. Cc1csc(-c2ccc3c(c2)COC3(CCCN(C)C)c2ccc(F)cc2)c1 (stereo not given) = inactive
4. CCCC(=O)Nc1ncnc2c1ncn2C1OC2COP(=O)(O)OC2C1OC(=O)CCC (stereo not given) = inactive
5. C/C=C1\C[C@@H]2C(OC)Nc3cc(O)c(OC)cc3C(=O)N2C1 (stereo not given in full) = active

(Q) How did this test come out for CCCCC/C=C\C/C=C/CCCCCCCCNC(=O)Nc1ccc([N+](=O)[O-])cc1 ?
(A) inactive

====

system: 786-0 renal; experiment: NCI tumour cell line growth inhibition, 48 h; in the data active means GI50 below about 0.43 µM; inactive means the rest
Answer with one of the outcomes active, inactive

1. O=C(Nc1ccc(Cl)cc1F)c1cc(Cl)ccc1O = inactive
2. CN1CCN(CCCOc2ccc3nc(Nc4ccc(C(F)(F)F)c(Cl)c4)ccc3c2)CC1 = inactive
3. CC(=O)Nc1ccc(S(=O)(=O)c2ccc(NC(C)=O)cc2)cc1 = inactive
4. N=C(N)c1ccc(-c2ccc(-c3ccc(Cl)c(Cl)c3)o2)nc1 = inactive
5. CCCCC/C=C\C/C=C/CCCCCCCCNC(=O)Nc1ccc([N+](=O)[O-])cc1 = inactive

(Q) What is the recorded call for this compound in the test? O=C1CCCC(=O)C1C(=O)c1ccc(C(F)(F)F)cc1[N+](=O)[O-]
(A) inactive

(Q) // return assay outcome for CCc1cccc(CC)c1NC(=O)c1ccn2c1CCc1cnc(Nc3ccc(N4CCN(C)CC4)cc3OC)nc1-2
(A) inactive

(Q) Tell me the assay call for CC(C)NCCCCCNc1cc(O)cc2cccnc12 please.
(A) inactive

(Q) Write down the call the test reported for this compound. Item: C/C=C1\C[C@@H]2C(OC)Nc3cc(O)c(OC)cc3C(=O)N2C1 (stereo not given in full)
(A) active

(Q) What was the test verdict on Cc1cccc2c1NC(=O)C2(c1ccc(O)cc1)c1ccc(O)cc1 ?
(A) inactive

====

test system: COLO 205 colon; experiment: NCI tumour cell line growth inhibition, 48 h
Where a SMILES comes first, the peptide text is derived from it. The star is where a group is joined. Boc = CC(C)(C)OC(=O)*; OBn = c1ccc(CO*)cc1
Measured TGI by item

1) Cc1nc2sc(C(=O)Nc3cccc(Cl)c3C)c(N)c2cc1C(=O)c1ccccc1 = 5.02 µM
2) CC(C)C(NC(=O)CNC(=O)C1CCCN1C(=O)C(NC(=O)OC(C)(C)C)C(C)C)C(=O)NCC(=O)OCc1ccccc1 (centres undefined) (Boc-VPGVG-OBn; configuration not given here) = > 100 µM
3) CCc1cccc(CC)c1NC(=O)c1ccn2c1CCc1cnc(Nc3ccc(N4CCN(C)CC4)cc3OC)nc1-2 = 2.36 µM
4) Cc1ccc(C(O)/C(=N/N)c2nc3ccc([N+](=O)[O-])cc3[nH]c2=O)cc1 (centres undefined) = > 100 µM
5) O=C1C2C3CCC(C2C(=O)N1CO)C1C2C(=O)N(CO)C(=O)C2C31 (centres undefined) = > 59.6 µM

TGI measured on C=CCCCCn1c2ccccc2c2c(C)c3c[n+](C)ccc3c(C)c21 = 1.08 µM

Short answer for Cc1cc2c(=O)c3ccccc3oc2c(C#N)c1C : TGI was > 100 µM

Value of measured TGI for the entry COc1cc2c3c(c1OCc1ccccc1)NCCC3NCC2 (centres undefined) : > 100 µM

Entry under test: CNC(=O)OCc1cc2ccncc2c2c1[nH]c1ccccc12 . Its TGI was > 100 µM
